Each entry below lists one item and its recorded chromatographic logP value.
testName: log P by HPLC-MS
runParameters: HCOOH (formic acid), logP, HCOOH; Table 1
Answer as a number with no unit attached.

Answered examples (10):
>>> measuredresult("c1cnc(-c2cccc(-c3cnc(-c4cccnc4)o3)n2)nc1")
1.39
>>> measuredresult("CCc1nn(-c2cccnc2)c(=O)n1-c1cccc(-c2ncccn2)n1")
1.48
>>> measuredresult("c1cnc(-c2cccc(-n3cnc(-c4cccnc4)c3)n2)nc1")
0.73
>>> measuredresult("Cn1nc(-c2cccc(-c3ncccn3)n2)cc1-c1cccnc1")
1.26
>>> measuredresult("c1cnc(-c2cccc(-c3ncc(-c4cccnc4)s3)n2)nc1")
1.79
>>> measuredresult("c1cnc(-c2cccc(-n3ccc(-c4cccnc4)n3)n2)nc1")
1.2
>>> measuredresult("c1cnc(-c2cccc(-n3cc(-c4cccnc4)cn3)n2)nc1")
1.04
>>> measuredresult("Cc1nn(-c2cccnc2)c(=O)n1-c1cccc(-c2ncccn2)n1")
1.17
>>> measuredresult("FC(F)(F)c1cccc(-n2cnc(-c3cccnc3)n2)n1")
2.11
>>> measuredresult("c1cnc(-c2cccc(-c3coc(-c4cccnc4)c3)n2)nc1")
1.26

Name the recorded chromatographic logP for "Brc1cccc(-c2cc(-c3cccnc3)no2)n1" .
2.23

Name the recorded chromatographic logP for "c1cnc(-c2cccc(-c3cn(-c4cccnc4)nn3)n2)nc1" .
1.39

Name the recorded chromatographic logP for "CC(C)c1nn(-c2cccnc2)c(=O)n1-c1cccc(-c2ncccn2)n1" .
1.77

---

testName: log P by HPLC-MS
readoutLabel: chromatographic logP

Name the recorded chromatographic logP for "C[Si](C)(C)C#Cc1cccc(-c2ncccn2)n1" .
3.11

---

testName: log P by HPLC-MS
runParameters: log P, HPLC-MS, eluent not stated
readoutLabel: chromatographic logP
Answer as a number with no unit attached.

Answered examples (3):
>>> measuredresult("CN(C)C=CC(=O)c1cncc(F)c1 (mixture of isomers)")
0.91
>>> measuredresult("CC1(C)OB(c2coc(-c3cccnc3)c2)OC1(C)C")
2.25
>>> measuredresult("CCc1nn(-c2cccnc2)c(=O)n1N")
0.32

Name the recorded chromatographic logP for "c1cnc(-c2cccc(-c3cnc(-c4cccnc4)o3)n2)nc1" .
1.39

Name the recorded chromatographic logP for "CCc1nn(-c2cccnc2)c(=O)[nH]1" .
0.3

Name the recorded chromatographic logP for "Cc1nn(-c2cccnc2)c(=O)[nH]1" .
-0.21

Name the recorded chromatographic logP for "c1cnc(-c2cccc(-n3ccc(-c4cccnc4)n3)n2)nc1" .
1.2

---

testName: log P by HPLC-MS
runParameters: log P, HPLC-MS, eluent not stated
readoutLabel: chromatographic logP
Answer as a number with no unit attached.

Answered examples (3):
>>> measuredresult("FC(F)(F)c1cccc(-n2cnc(-c3cccnc3)n2)n1 [Compound 6]")
2.11
>>> measuredresult("c1cnc(-c2cccc(-c3cn(-c4cccnc4)nn3)n2)nc1 [Compound 10]")
1.39
>>> measuredresult("c1cnc(-c2cccc(-c3nccs3)n2)nc1")
1.43

Consider the record given below.
Name the recorded chromatographic logP for "COC(=O)c1cccc(-n2ccc(-c3cncc(F)c3)n2)n1" .
1.07

---

testName: log P by HPLC-MS
runParameters: log P, HPLC-MS, eluent not stated
readoutLabel: chromatographic logP
Answer as a number with no unit attached.

>>> measuredresult("CC(C)c1nn(-c2cccnc2)c(=O)n1N")
0.85
>>> measuredresult("Fc1cncc(-c2cc[nH]n2)c1 [3-(5-fluoro-3-pyridinyl)-1H-pyrazole, 3-(5-Fluoro-3-pyridinyl)-1H-pyrazole]")
0.92
>>> measuredresult("C#Cc1cccc(-c2ncccn2)n1 [2-(6-ethynylpyridin-2-yl)pyrimidine, 2-(6-Ethynylpyridin-2-yl)pyrimidine]")
1.05

Name the recorded chromatographic logP for Fc1cncc(-c2cnc(-c3cccc(-c4ncccn4)n3)s2)c1 [Compound 21] .
2.13

Name the recorded chromatographic logP for "O=C(O)c1cccc(-n2ccc(-c3cncc(F)c3)n2)n1" .
1.81
